B1: Kinesin-like protein KIF16B, residues 1213 to 1273; numbered along this chain, Q96L93 (parent)
chain: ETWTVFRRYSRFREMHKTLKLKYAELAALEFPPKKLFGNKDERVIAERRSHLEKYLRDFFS

- Variants of: B1
- EXPERIMENTAL_DETAILS: abundance fitness (aPCA) (normalised: wild type 0, dead -1); higher = more abundant; growth selection in yeast, the domain comes from the species named
- CONDITION_NOTES: Homo sapiens
Binning of abundance fitness into classes: b0: < -0.2; b1: ≥ -0.2 and < 0.2; b2: ≥ 0.2

1. A27Q : b1
2. R57D : b0
3. R8Q : b1
4. T2K : b0
5. E53R : b2
6. Y9G : b2
7. Y23H : b1
8. R7P : b1
9. K54H : b0
10. K54S : b1
11. Y23V : b2
12. A24S : b0
